target or system: human calcium-sensing receptor (CaSR) (Homo sapiens, UniProt P41180)
Construct: expressed in transfected cells; host or cells: HEK 293T cells, transiently transfected (lipofectamine 2000); in some cases HEK293 cells stably transfected
Sequence (P41180 20-1078): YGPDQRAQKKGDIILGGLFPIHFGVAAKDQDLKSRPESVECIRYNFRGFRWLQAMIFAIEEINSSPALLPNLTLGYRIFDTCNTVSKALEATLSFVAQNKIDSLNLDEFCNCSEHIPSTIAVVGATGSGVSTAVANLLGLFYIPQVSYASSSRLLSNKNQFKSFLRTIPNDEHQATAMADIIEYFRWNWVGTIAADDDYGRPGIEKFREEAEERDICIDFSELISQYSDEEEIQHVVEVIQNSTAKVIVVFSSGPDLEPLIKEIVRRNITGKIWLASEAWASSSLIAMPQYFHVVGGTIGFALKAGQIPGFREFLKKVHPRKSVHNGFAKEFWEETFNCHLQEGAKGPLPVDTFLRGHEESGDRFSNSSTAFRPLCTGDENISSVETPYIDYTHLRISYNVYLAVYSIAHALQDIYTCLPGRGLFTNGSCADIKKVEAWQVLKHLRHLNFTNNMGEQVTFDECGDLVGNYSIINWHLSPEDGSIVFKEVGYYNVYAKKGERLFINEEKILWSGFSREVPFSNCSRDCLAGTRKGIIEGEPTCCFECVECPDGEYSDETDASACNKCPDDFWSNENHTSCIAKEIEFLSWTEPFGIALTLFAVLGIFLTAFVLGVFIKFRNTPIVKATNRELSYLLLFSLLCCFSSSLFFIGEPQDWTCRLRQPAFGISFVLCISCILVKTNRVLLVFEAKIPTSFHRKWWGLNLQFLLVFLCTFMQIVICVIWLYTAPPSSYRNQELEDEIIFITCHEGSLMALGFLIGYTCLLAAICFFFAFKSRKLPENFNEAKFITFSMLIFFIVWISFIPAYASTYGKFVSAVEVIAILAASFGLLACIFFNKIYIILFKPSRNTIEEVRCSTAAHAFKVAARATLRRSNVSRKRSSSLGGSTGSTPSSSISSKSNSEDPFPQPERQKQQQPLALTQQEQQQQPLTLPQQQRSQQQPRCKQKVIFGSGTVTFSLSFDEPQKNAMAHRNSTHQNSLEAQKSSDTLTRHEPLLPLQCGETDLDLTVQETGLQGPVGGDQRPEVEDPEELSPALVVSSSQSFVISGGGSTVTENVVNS
experiment description: In vitro cell assay in HEK-293 expressing the human calcium-sensing receptor (IP1 production)
Type: cell-based
experimental setup: Table 5; IP1 production in HEK293 cells expressing human CaSR, eight concentrations in duplicate; read-out: EC50 in CaSR in vitro assay
Square brackets hold non-standard residues; d marks the D form. Peptide text beside a SMILES is read from it.
assay endpoint: EC50 (µM)
Your answer should be a plain number; it is taken to be in µM.

CC(=O)N[C@H](CS)C(=O)N[C@H](CCC(=O)O)C(=O)N[C@H](CCCNC(=N)N)C(=O)N[C@H](CCCNC(=N)N)C(=O)N[C@H](CCCNC(=N)N)C(=O)N[C@H](C)C(=O)N[C@H](CCCNC(=N)N)C(N)=O [SEQ ID NO: 69, Ac-cerrrar-NH2] (Ac-[dC][dE][dR][dR][dR][dA][dR]-NH2); 31

Exam item: Look up and report measured EC50 (human calcium-sensing receptor (CaSR) (Homo sapiens, UniProt P41180)) for the following molecule: `CC(=O)N[C@@H](CS)C(=O)N[C@@H](Cc1ccc(O)cc1)C(=O)NCC(=O)N[C@@H](CCCNC(=N)N)C(=O)N[C@@H](CCCCN)C(=O)N[C@@H](CCCCN)C(=O)N[C@@H](CCCNC(=N)N)C(=O)N[C@@H](CCCNC(=N)N)C(=O)N[C@@H](CCC(N)=O)C(=O)N[C@@H](CCCNC(=N)N)C(=O)N[C@@H](CCCNC(=N)N)C(=O)N[C@@H](CCCNC(=N)N)C(N)=O`
Marked response: 4.5

Exam item: Provide human calcium-sensing receptor (CaSR) (Homo sapiens, UniProt P41180) EC50 reading for `CC(=O)N[C@H](CCS)C(=O)N[C@H](CCCNC(=N)N)C(=O)N[C@H](CCCNC(=N)N)C(=O)N[C@H](CCCNC(=N)N)C(=O)N[C@H](CCCNC(=N)N)C(=O)N[C@H](CCCNC(=N)N)C(=O)N[C@H](CCCNC(=N)N)C(N)=O` .
Marked response: 2

Exam item: Write EC50 of CC(=O)N[C@H](CS)C(=O)N[C@H](C)C(=O)N[C@H](C)C(=O)N[C@H](CCCNC(=N)N)C(=O)N[C@H](CCCNC(=N)N)C(=O)N[C@H](CCCNC(=N)N)C(=O)N[C@H](CCCNC(=N)N)C(=O)N[C@H](CCCNC(=N)N)C(=O)N[C@H](CCCNC(=N)N)C(N)=O [SEQ ID NO: 76, Ac-caarrrrrr-NH2] (Ac-[dC][dA][dA][dR][dR][dR][dR][dR][dR]-NH2) ; system used: human calcium-sensing receptor (CaSR) (Homo sapiens, UniProt P41180)
Marked response: 4.5

Exam item: Tell me EC50 of `CC(=O)N[C@@H](Cc1ccc(O)cc1)C(=O)NCC(=O)N[C@@H](CCCNC(=N)N)C(=O)N[C@@H](CCCCN)C(=O)N[C@@H](CCCCN)C(=O)N[C@@H](CCCNC(=N)N)C(=O)N[C@@H](CCCNC(=N)N)C(=O)N[C@@H](CCC(N)=O)C(=O)N[C@@H](CCCNC(=N)N)C(=O)N[C@@H](CCCNC(=N)N)C(=O)N[C@@H](CCCNC(=N)N)C(N)=O` when tested on human calcium-sensing receptor (CaSR) (Homo sapiens, UniProt P41180).
Marked response: 16
